Reported values: MIC for Leuconostoc lactis DSM 20202, one per item.
The reply should contain only the number, in µg/mL.

These solved cases illustrate the format of a correct answer.
{"compound": "CCCC(O)CC(=O)O[C@H]1[C@H](O[C@H]2[C@H](O)[C@@H](O)[C@H](OCC(O)CCCCCCCCCCCCC(O)C(=O)O)O[C@@H]2COC(C)=O)O[C@H](CO)[C@@H](O)[C@@H]1O (stereo partly shown) [NP-018217]", "unit info": "µg/mL", "MIC": 250}
{"compound": "O=C(O)OC[C@H]1O[C@@H](OCC(O)CCCCCCCCCCC/C=C(\\O)C(=O)O)[C@H](O)[C@@H](O)[C@@H]1O[C@@H]1O[C@H](CO)[C@@H](O)[C@H](O)[C@H]1OC(=O)CC(O)CCO (stereo partly shown) [NP-018756]", "unit info": "µg/mL", "MIC": 600}
{"compound": "CCCCCC(O)CC(=O)O[C@H]1[C@H](O[C@H]2[C@H](O)[C@@H](O)[C@H](OCC(O)CCCCCCCCCCCCC(O)C(=O)O)O[C@@H]2COC(C)=O)O[C@H](CO)[C@@H](O)[C@@H]1O (stereo partly shown) [NP-018256]", "unit info": "µg/mL", "MIC": 240}

Now look at this one.
Tested on Leuconostoc lactis DSM 20202, the item O=C(O)CCCCCCCCCCCCCC(O)CO[C@@H]1O[C@H](COC(=O)O)[C@@H](O[C@@H]2O[C@H](CO)[C@@H](O)[C@H](O)[C@H]2OC(=O)CC(O)CCO)[C@H](O)[C@H]1O (stereo partly shown) [NP-018250] showed MIC equal to 250
